- study.target: FLT1 (human)
- assay.procedure: radiometric filter-binding kinase assay
- conditions: compound 1.0 µM
observable: residual activity (%)
Write the number in % without appending the unit.

Use the examples below as a reference point.
COc1cc(C(=O)N2CCOCC2)c(F)cc1Nc1ncc(C(F)(F)F)c(NC2CC2)n1    55
CN(C)C/C=C/C(=O)Nc1cccc(C(=O)Nc2ccc(Nc3nccc(-c4cccnc4)n3)cc2)c1    32
CCCCCc1ccc(/C=C/[C@H](O)[C@@H](CO)NC)cc1    81
NC(=O)c1ccc(-c2ccc(Oc3cncc4sc(-c5nn[nH]n5)cc34)cc2)cc1    84
Cc1cccc(-c2nn(C(=S)Nc3ccccc3)cc2-c2ccnc3ccccc23)n1    8

Continue with the next compound.
For the compound O=C(O)c1ccc(-c2c[nH]c3ncc(-c4ccccc4)cc23)cc1C1CCCC1 , the measured residual activity on FLT1 (human) was 63
